# experimentalSystem: Cyclin-dependent kinase 6 (Homo sapiens, UniProt Q00534)
# Sequence (Q00534 whole entry): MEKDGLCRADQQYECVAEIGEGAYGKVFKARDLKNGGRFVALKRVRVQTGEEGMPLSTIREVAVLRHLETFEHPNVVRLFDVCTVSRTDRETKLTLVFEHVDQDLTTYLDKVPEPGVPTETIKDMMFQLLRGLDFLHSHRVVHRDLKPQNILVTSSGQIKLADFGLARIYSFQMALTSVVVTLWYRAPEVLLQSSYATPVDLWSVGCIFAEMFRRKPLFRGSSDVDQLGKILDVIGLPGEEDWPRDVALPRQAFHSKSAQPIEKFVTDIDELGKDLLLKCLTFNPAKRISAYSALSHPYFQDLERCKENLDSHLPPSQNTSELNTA
The entries below are paired with their reported IC50.

Some compounds with recorded IC50:
[
  {
    "compound": "CC(=O)N[C@@H]1CCC[C@H](C(=O)Nc2cc(-c3cnn4c3CC(C)(C)C4)c(Cl)cn2)C1 [ZEMIRCICLIB]",
    "IC50": "363 nM"
  },
  {
    "compound": "CC(=O)N[C@@H]1CCC[C@H](C(=O)Nc2cc(-c3cnn4c3CCCC4)c(Cl)cn2)C1",
    "IC50": "2500 nM"
  }
]

[ask] Would you kindly share the measured IC50 for CC(=O)N[C@@H]1CCC[C@H](C(=O)Nc2cc(-c3cnn4c3CC(C)(C)C4)c(F)cn2)C1 ?
[reply] 532 nM

====

# protocolText: Intrinsic clearance in human cryopreserved hepatocytes assessed per million cells […]
# Format: ADME, cell-based, Hepatocyte
# experimentalParameters: read-out: CLH
measurementType: hepatocyte CLint (µL/min/1e6 cells)
Hi! Could you send only the number? It should be in µL/min/1e6 cells, unit omitted.

Use these answered entries as a reference point.
[
  {
    "compound": "COc1cc(F)ccc1-c1ccnc(NC(=O)[C@H]2CCC[C@@H](NC(C)=O)C2)c1",
    "measurementType": "hepatocyte CLint",
    "testResult": 1.4
  },
  {
    "compound": "CC(=O)N[C@@H]1CCC[C@H](C(=O)Nc2cc(-c3cnn4c3CC(C)(C)C4O)c(Cl)cn2)C1 (some centres undefined)",
    "measurementType": "hepatocyte CLint",
    "testResult": 48
  },
  {
    "compound": "CC(=O)N[C@@H]1CCC[C@H](C(=O)Nc2cc(-c3cnn4c3CCCCC4)c(Cl)cn2)C1",
    "measurementType": "hepatocyte CLint",
    "testResult": 4.6
  },
  {
    "compound": "CC1(C)Cc2c(-c3cc(NC(=O)[C@H]4C[C@@H](O)C4)ncc3Cl)cnn2C1",
    "measurementType": "hepatocyte CLint",
    "testResult": 106
  }
]

[ask] Look up hepatocyte CLint: CC(=O)N[C@@H]1CCC[C@H](C(=O)Nc2cc(-c3cnn4c3CC(C)(C)C4)c(Cl)cn2)C1
[reply] 3.5

[ask] Data request, read-out hepatocyte CLint, for CC(=O)N[C@@H]1CCC[C@H](C(=O)Nc2cc(-c3cnn4c3CCCC4O)c(Cl)cn2)C1 (some centres undefined)
[reply] 33

[ask] Fill in the blank: the reported hepatocyte CLint of CC(=O)N[C@@H]1CC[C@H](C(=O)Nc2cc(-c3cnn4c3CC(C)(C)C4)c(Cl)cn2)C1 is ____.
[reply] 5.8

====

# experimentalSystem: Dual specificity tyrosine-phosphorylation-regulated kinase 2 (Homo sapiens, UniProt Q92630)
# Sequence (Q92630 whole entry): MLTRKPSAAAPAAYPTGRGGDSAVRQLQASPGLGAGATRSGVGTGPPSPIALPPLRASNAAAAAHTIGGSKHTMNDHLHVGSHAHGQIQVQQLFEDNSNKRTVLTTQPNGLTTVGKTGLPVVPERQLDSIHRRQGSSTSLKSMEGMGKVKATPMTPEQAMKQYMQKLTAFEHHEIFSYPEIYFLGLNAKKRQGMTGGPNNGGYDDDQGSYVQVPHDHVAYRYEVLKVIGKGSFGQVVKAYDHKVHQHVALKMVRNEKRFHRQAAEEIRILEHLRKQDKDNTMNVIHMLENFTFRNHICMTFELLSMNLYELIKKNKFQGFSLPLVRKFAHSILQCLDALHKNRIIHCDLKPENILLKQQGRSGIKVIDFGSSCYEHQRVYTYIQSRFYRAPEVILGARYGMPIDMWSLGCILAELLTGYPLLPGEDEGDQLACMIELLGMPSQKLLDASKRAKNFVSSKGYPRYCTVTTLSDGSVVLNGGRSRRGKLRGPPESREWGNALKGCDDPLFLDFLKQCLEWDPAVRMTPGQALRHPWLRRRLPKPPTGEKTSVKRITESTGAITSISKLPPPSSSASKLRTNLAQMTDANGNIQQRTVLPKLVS
measurementType: pIC50
On this scale, pIC50 is minus log10 of a concentration expressed in M (mol/L).

[ask] pIC50 for CC(=O)N[C@@H]1CCC[C@H](C(=O)Nc2cc(-c3cnn4c3CC(C)(C)C4)c(Cl)cn2)C1 ?
[reply] 5.06

====

Reported IC50 by item:
# experimentalSystem: CDK9/cyclin T1 (Homo sapiens)
# Sequence (O60563 whole entry, the tested form may be a part): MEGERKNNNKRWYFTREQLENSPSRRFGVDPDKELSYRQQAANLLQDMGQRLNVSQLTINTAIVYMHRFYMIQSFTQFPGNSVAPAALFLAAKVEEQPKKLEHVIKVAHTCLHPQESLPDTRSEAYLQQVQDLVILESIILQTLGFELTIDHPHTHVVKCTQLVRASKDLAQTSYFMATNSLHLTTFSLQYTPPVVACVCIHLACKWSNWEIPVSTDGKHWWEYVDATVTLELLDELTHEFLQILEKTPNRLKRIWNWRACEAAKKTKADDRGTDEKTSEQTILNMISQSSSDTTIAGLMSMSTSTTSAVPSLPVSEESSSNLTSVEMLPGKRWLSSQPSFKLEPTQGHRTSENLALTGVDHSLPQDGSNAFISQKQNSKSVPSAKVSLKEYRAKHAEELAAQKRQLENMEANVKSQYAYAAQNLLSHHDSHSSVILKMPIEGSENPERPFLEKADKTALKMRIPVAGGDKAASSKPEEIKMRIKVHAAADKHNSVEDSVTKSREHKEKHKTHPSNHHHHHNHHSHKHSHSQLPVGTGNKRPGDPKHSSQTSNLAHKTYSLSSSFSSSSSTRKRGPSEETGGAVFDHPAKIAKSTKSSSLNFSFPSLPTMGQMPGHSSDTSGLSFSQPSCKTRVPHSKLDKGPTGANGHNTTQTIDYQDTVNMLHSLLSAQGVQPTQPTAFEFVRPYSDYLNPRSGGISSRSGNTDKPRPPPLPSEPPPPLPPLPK
# Sequence (P50750 whole entry, the tested form may be a part): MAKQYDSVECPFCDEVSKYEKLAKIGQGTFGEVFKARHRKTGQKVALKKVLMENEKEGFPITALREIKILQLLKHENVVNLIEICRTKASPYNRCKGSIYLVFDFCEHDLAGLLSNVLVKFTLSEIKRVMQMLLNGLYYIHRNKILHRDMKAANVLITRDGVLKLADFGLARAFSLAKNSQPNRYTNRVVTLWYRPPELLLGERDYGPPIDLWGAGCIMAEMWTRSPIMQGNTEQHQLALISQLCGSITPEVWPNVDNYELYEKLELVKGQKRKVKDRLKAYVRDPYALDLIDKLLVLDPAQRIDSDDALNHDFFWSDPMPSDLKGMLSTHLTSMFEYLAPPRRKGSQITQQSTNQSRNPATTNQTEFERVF
# protocolText: Inhibition of recombinant full length human N-terminal GST-fused CDK9 (1 to 372 residues)/His-tagged CyclinT1 (1 to 726 residues) expressed in baculovirus infected insect cells using FITC-X-GSRTPMY-NH2 as substrate preincubated for 10 mins followed by MgCl2 addition and measured after 90 mins in presence of 5 mM ATP by mobility shift assay

[
  {
    "compound": "CC(=O)N[C@@H]1CCC[C@H](C(=O)Nc2cc(-c3cnn4c3CCCC4)ccn2)C1",
    "IC50": "0.23 µM"
  }
]

[ask] Hello, I am looking for reported IC50 with CDK9/cyclin T1 (Homo sapiens) for CC(=O)N[C@@H]1CCC[C@H](C(=O)Nc2cc(-c3cnn4c3CN(C)CC4)c(Cl)cn2)C1 . Could you help?
[reply] 0.22 µM

[ask] Item: CC(=O)N[C@@H]1CCC[C@H](C(=O)Nc2cc(-c3cnn4c3OCCC4)c(Cl)cn2)C1 Test system: CDK9/cyclin T1 (Homo sapiens) Read-out: IC50 Value: ?
[reply] 0.11 µM

====

# protocolText: Solubility of compound in pH 4 0.1 M acetate buffer using crystalline form of sample
# Type: physicochemical
measurementType: solubility thermodynamic (µg/mL)
Respond numerically; units are µg/mL and should not be typed.

[ask] Value lookup for solubility thermodynamic; key = CC(=O)N[C@@H]1CCC[C@H](C(=O)Nc2cc(-c3cnn4c3CCCC4)c(Cl)cn2)C1
[reply] 210

====

# protocolText: Half-life in Beagle dog at 5.2 umol/kg, iv administered over 0.25 hrs formulated as solution in 5% DMSO
# Format: ADME, organism-based, Canis lupus familiaris
# experimentalParameters: in vivo, dose 5.2 µmol/kg
measurementType: half-life (min)
Numbers only here, please. The scale is min.

[ask] Give the measured half-life of CC(=O)N[C@@H]1CCC[C@H](C(=O)Nc2cc(-c3cnn4c3CCCC4)c(Cl)cn2)C1 .
[reply] 30

====

# protocolText: Clearance in Beagle dog plasma at 0.23 umol/kg, iv administered over 0.25 hrs formulated as solution in 10% DMSO/90% water
# Format: ADME, organism-based, Canis lupus familiaris
# experimentalParameters: dose 0.23 µmol/kg
measurementType: clearance (mL/min/kg)
Response body: numeric value in mL/min/kg, unit text excluded.

[ask] Field request: clearance | item: CC(=O)N[C@@H]1CCC[C@H](C(=O)Nc2cc(-c3cnn4c3CC(C)(C)C4)c(Cl)cn2)C1 [ZEMIRCICLIB]
[reply] 16

====

# protocolText: Volume of distribution at steady state in Han Wistar rat at […], iv formulated as solution
# Format: ADME, organism-based
# experimentalParameters: in vivo, dose 1.3 µmol/kg, read-out: Vdss
measurementType: Vd (L/kg)
The reply should be a number in L/kg, with the unit left off.

[ask] Item under review: COc1cc(F)ccc1-c1ccnc(NC(=O)[C@H]2CCC[C@@H](NC(C)=O)C2)c1 . Reported Vd?
[reply] 1.3

====

# protocolText: Intrinsic clearance in human liver microsome
# Format: ADME, microsomes
# experimentalParameters: liver microsomes, read-out: CLH
Please assign a class to every record based on measured microsomal CLint, with ranges low: < 10 µL/min/mg; intermediate: ≥ 10 µL/min/mg and < 30 µL/min/mg; high: ≥ 30 µL/min/mg

[
  {
    "compound": "COc1cc(F)ccc1-c1ccnc(NC(=O)[C@H]2CCC[C@@H](NC(C)=O)C2)c1",
    "label": "intermediate"
  },
  {
    "compound": "CC(=O)N[C@@H]1CCC[C@H](C(=O)Nc2cc(-c3cnn4c3CC(C)(C)C4)c(C)cn2)C1",
    "label": "intermediate"
  },
  {
    "compound": "CC(=O)N[C@@H]1CCC[C@H](C(=O)Nc2cc(-c3cnn4c3CCCC4O)c(Cl)cn2)C1 (stereo partly specified)",
    "label": "intermediate"
  },
  {
    "compound": "CC(=O)N[C@@H]1CC[C@H](C(=O)Nc2cc(-c3cnn4c3CC(C)(C)C4)c(Cl)cn2)C1",
    "label": "high"
  },
  {
    "compound": "CC(=O)N[C@@H]1CCC[C@H](C(=O)Nc2cc(-c3cnn(C)c3C)c(Cl)cn2)C1",
    "label": "low"
  },
  {
    "compound": "CC(=O)N[C@@H]1CCC[C@H](C(=O)Nc2cc(-c3cnn4c3CC(C)C4)c(Cl)cn2)C1 (stereo in doubt; 28)",
    "label": "intermediate"
  },
  {
    "compound": "CC(=O)N[C@@H]1CCC[C@H](C(=O)Nc2cc(-c3cnn4c3CCC4)c(Cl)cn2)C1",
    "label": "low"
  },
  {
    "compound": "CC(=O)N[C@@H]1CCC[C@H](C(=O)Nc2cc(-c3cnn4c3NCCC4)c(Cl)cn2)C1",
    "label": "low"
  },
  {
    "compound": "CC(=O)N[C@@H]1CCC[C@H](C(=O)Nc2cc(-c3cnn4c3CN(C)CC4)c(Cl)cn2)C1",
    "label": "low"
  },
  {
    "compound": "CC(=O)N[C@@H]1CCC[C@H](C(=O)Nc2cc(-c3cnn4c3CC(C)(C)CC4)ccn2)C1",
    "label": "intermediate"
  }
]

[ask] Band for CC(=O)N[C@@H]1CCC[C@H](C(=O)Nc2cc(-c3cnn4c3CCCCC4)c(Cl)cn2)C1 ?
[reply] high

====

# protocolText: Intrinsic clearance in mouse cryopreserved hepatocytes assessed per million cells […]
# Type: ADME, cell-based, Hepatocyte
# experimentalParameters: read-out: CLH
# maps each entry to its hepatocyte CLint
Enter your answer as a number in µL/min/1e6 cells; do not include the unit.

Sample records with hepatocyte CLint:
[
  {
    "structureString": "CC(=O)N[C@@H]1CCC[C@H](C(=O)Nc2cc(-c3cnn4c3CC(C)(C)C4)c(F)cn2)C1",
    "hepatocyte CLint / µL/min/1e6 cells": 75
  },
  {
    "structureString": "CC(=O)N[C@@H]1CCC[C@H](C(=O)Nc2cc(-c3cnn4c3CCCC4)c(Cl)cn2)C1",
    "hepatocyte CLint / µL/min/1e6 cells": 27
  },
  {
    "structureString": "COc1cc(F)ccc1-c1ccnc(NC(=O)[C@H]2CCC[C@@H](NC(C)=O)C2)c1",
    "hepatocyte CLint / µL/min/1e6 cells": 52
  }
]

[ask] May I ask what hepatocyte CLint has been recorded for CC(=O)N[C@@H]1CCC[C@H](C(=O)Nc2cc(-c3cnn4c3CC(C)(C)C4)c(Cl)cn2)C1 ?
[reply] 98
